The values you see were collected from patent US11040963B2.

experiment: in vitro; details: dog, Cytotoxicity (pCC50) MDCK
Consider the cut-off 10 µM. If the recorded CC50 is strictly smaller, the label is Criterion met; if not, the label is Criterion not met.

{"columns": ["MOLECULE", "DISCRETE LABEL"],
 "data": [
  ["COC(=O)C(c1ccccc1)N1CCN(C(=O)c2cccc(-c3nc4cc(N)ccc4o3)c2)CC1 (stereo not drawn)", "Criterion not met"],
  ["CC(=O)Nc1ccc2oc(-c3ccnc(C(=O)N4CCN([C@H](c5ccccc5)c5n[nH]c(C)n5)CC4)c3)nc2c1", "Criterion not met"],
  ["COC(=O)C(c1ccccc1)N1CCN(C(=O)c2cccc(-c3nc4ccccc4o3)c2)CC1 (stereo not drawn)", "Criterion not met"],
  ["CNc1ccc2oc(-c3cccc(C(=O)N4CCN(C(c5ccccc5)c5nnc(C)o5)CC4)c3)nc2c1 (stereo not drawn)", "Criterion not met"],
  ["COc1ccc2nc(-c3cccc(C(=O)N4CCN(C(c5ccccc5)c5nncs5)CC4)c3)sc2c1 (stereo not drawn)", "Criterion not met"],
  ["COC(=O)C(c1ccccc1)N1CCN(C(=O)c2cccc(-c3nc4cc(N(C)C)ccc4o3)c2)CC1 (stereo not drawn)", "Criterion met"],
  ["CCOC(=O)[C@@H](c1ccccc1)N1CCN(C(=O)c2cccc(-c3ccc(OC)cc3)c2)CC1", "Criterion met"],
  ["Cc1nnc([C@@H](c2ccccc2)N2CCN(C(=O)c3cccc(-c4cc5ccccc5cn4)c3)CC2)o1", "Criterion not met"],
  ["Cc1nnc([C@@H](c2ccccc2)N2CCN(C(=O)c3cccc(-c4ccc5ccccc5n4)c3)CC2)o1", "Criterion met"],
  ["COc1ccc2nc(-c3cccc(C(=O)N4CCN(C(c5ccccc5)c5noc(C)n5)CC4)c3)sc2c1 (stereo not drawn)", "Criterion not met"],
  ["COC(=O)[C@@H](c1ccccc1)N1CCN(C(=O)c2cccc(-c3nc4ccc(OC)cc4s3)c2)CC1", "Criterion not met"],
  ["COc1ccc2oc(-c3ccnc(C(=O)N4CCN(C(c5ccccc5)c5nnc(C)o5)CC4)c3)nc2c1 (stereo not drawn)", "Criterion not met"],
  ["Cc1nnc([C@@H](c2ccccc2)N2CCN(C(=O)c3cc(-c4nc5cc(OC(F)(F)F)ccc5o4)ccn3)CC2)o1", "Criterion not met"]
]}
